Origin of values: PubChem BioAssay (NCI)

molecules and their reported growth inhibition
Test: NCI Yeast Anticancer Drug Screen. Data for the mlh1 strain (AID 171);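 also: 0% = growth of vehicle-treated control cultures of the same strain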
Settings: S. cerevisiae mlh1 strain growth inhibition; at 1.2 µM; stronger effect = higher value
About 79,000 compounds went through this panel and 15% of them were active in at least one assay; those are over-represented in the sample as a whole.
Readout label: growth inhibition (%)

Molecule	Value measured
CCOC1(c2cccc([N+](=O)[O-])c2)c2ccccc2Oc2ccccc21	-2
CCCCOP(=O)(CCCP(=O)(OCCCC)OCCCC)OCCCC	-5
C[Si](C)(C)/C=C/CCNC(C#N)c1ccccc1 (stereo not drawn)	-16
CCCCCCCCCCCCCCCCOP(=O)(O)OCC(N)C(=O)O (stereo not drawn)	-23
O=C(Nc1ccc(Cl)cc1)Nc1nnc2nc(C(C(=O)c3cccc([N+](=O)[O-])c3Cl)c3nc4nnc(NC(=O)Nc5ccc(Cl)cc5)n4[nH]c3=O)c(=O)[nH]n12	1
Nc1ccc(F)cc1S	-20
CN(CCN(C)Cc1ccccc1)Cc1ccccc1	8
CCCCCCCCCCCCNC(C)=O	6
CCO/C(C)=C(/C#N)C(N)=S	-2
CC(C)=NOC(=O)Nc1ccc(Cl)cc1	-25
COc1ccc(NC(=O)CC2SC(=Nc3ccccc3C)NC2=O)c([N+](=O)[O-])c1 (stereo not drawn)	0
COc1ccc(C/C=N/Nc2ccc([N+](=O)[O-])cc2)cc1OC	-1
O=c1ssc(=Nc2ccccc2)n1-c1ccccc1	7
C[CH2][Sn]([CH2]C)([O]C(=O)C(N)Cc1ccccc1)[O]C(=O)C(N)Cc1ccccc1 (stereo not drawn)	6
Cc1cc2cc3cc(C)c(N)cc3nc2cc1N	-10
CCOC(=O)C1N=[N+](c2ccccc2)C(=O)/C1=C\n1c(=S)[nH]c2ccc([N+](=O)[O-])cc21 (stereo not drawn)	0
COc1cc(O)c(O)c(C(C)(C)C)c1	3
CC(C)(C)c1ccc(NS(=O)(=O)c2ccc(N)cc2)cc1	5
Nc1cc(N)c(N=Nc2cccc3c(S(=O)(=O)O)cccc23)cc1N=Nc1cc([N+](=O)[O-])ccc1O	-15
Cc1cc(-c2cc(C)c(O)c(C(C)(C)C)c2)cc(C(C)(C)C)c1O	-44
O=C(/C=C(/c1ccccc1)N1CCCCC1)c1ccccc1	-4
CCC(C)NC1=NCC(C)S1 (stereo not drawn)	-27
O=C(O)c1ccc(N2C(=O)C=CC2=O)cc1	-2
